ASSAYED_SYSTEM: Aryl hydrocarbon receptor (Homo sapiens) (UniProt P35869)
Sequence (P35869 whole entry, looked up): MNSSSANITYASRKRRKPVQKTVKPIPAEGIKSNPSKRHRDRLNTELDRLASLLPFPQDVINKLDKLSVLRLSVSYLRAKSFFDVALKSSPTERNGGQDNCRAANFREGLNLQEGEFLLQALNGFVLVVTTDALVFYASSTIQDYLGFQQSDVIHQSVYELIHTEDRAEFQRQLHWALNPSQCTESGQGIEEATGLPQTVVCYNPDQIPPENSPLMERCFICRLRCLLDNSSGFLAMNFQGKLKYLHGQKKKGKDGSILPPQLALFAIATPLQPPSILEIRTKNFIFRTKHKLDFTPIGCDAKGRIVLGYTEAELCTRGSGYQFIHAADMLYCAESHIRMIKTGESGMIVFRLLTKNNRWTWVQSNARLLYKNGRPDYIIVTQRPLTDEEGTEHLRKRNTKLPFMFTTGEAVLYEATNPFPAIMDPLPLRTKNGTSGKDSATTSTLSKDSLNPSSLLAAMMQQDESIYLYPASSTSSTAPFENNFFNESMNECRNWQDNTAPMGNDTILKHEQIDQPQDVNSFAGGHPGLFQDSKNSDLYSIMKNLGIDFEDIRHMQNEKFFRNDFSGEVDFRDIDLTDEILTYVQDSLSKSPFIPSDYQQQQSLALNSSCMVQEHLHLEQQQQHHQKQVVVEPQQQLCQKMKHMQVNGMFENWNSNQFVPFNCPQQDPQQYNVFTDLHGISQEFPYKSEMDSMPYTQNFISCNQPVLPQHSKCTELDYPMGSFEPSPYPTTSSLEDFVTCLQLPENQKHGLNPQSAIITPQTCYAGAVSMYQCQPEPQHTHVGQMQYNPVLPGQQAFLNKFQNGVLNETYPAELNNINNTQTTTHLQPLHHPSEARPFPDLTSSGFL
PROTOCOL_DESCRIPTION: qHTS assay to identify small molecule that activate the aryl hydrocarbon receptor (AhR) signaling pathway (AID 743085); further: nearly all actives have a fitted effect of over 15% in size;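 on activation: HG2L7.5c1 human HepG2 liver cells with stably integrated DRE-driven firefly reporter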
MEASUREMENT_SETUP: HepG2 AhR-luc (HG2L7.5c1), luciferase, 24 h; series mostly up to 70.3 µM
Records with an inconclusive call do not appear. Calls of active or inactive are those of the source. The call rests on the fitted dose curve; in most records, active means well fitted activation curve with a large enough effect in the repeat runs; inconclusive means weak or mixed curves; inactive means no such curve, though single readings can be large or run the other way.
Labels: active, inactive

MOLECULE	ASSIGNED_CATEGORY
C=CC1=C(C(=O)O)N2C(=O)[C@@H](NC(=O)/C(=N\O)c3csc(N)n3)[C@H]2SC1 (stereo in doubt)	inactive
C[N+]1(CCCCC[N+]2(C)CCCC2)CCCC1	inactive
CCN(CC)CCNC(=O)c1ccc(NS(C)(=O)=O)cc1	inactive
O=C(O)/C=C/C(=O)Nc1ccc(S(=O)(=O)Nc2nccs2)cc1	inactive
Nc1nc(NC2CC2)c2ncn([C@@H]3C=C[C@@H](CO)C3)c2n1	active
N=C(N)n1cccn1	inactive
CO[C@H](C(=O)[C@@H](O)[C@@H](C)O)C1Cc2cc3cc(O[C@H]4C[C@@H](O[C@H]5C[C@@H](O)[C@H](O)[C@@H](C)O5)[C@@H](O)[C@@H](C)O4)c(C)c(O)c3c(O)c2C(=O)[C@H]1O[C@H]1C[C@@H](O[C@H]2C[C@@H](O[C@H]3C[C@](C)(O)[C@H](O)[C@@H](C)O3)[C@H](O)[C@@H](C)O2)[C@H](O)[C@@H](C)O1 (stereo partly drawn)	active
O=S(=O)(O)CC(S)CS (stereo not drawn)	inactive

Each recorded value in this set is attributed to PubChem BioAssay (Tox21).
